assay target: T1, 4H3009-AA
T1 chain: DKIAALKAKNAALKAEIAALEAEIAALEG
assay summary: two-hybrid library CCmax;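 also: natural log of median RNA to DNA barcode read ratio; higher means stronger binding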
measurement context: mean of both orientations
Task for the reader: assign each of the following binders its reported interaction score.
One number for each entry.

Solved cases (3 shown):
binder | interaction score
DKIAALEAKNAALEAEIAALEAKIAALKG [4H2438-AA] | 1.88
DKIAALEAKNAALEAKIAALKAEIAALEG [4H2473-AA] | 2.07
DENAALKAEIAALEAKIAALKAENAALEG [4H1579-AA] | -2.01

Please go through the list and note interaction score for each binder.
1. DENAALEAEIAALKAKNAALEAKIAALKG [4H1142-AA]
2. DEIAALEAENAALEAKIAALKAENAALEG [4H171-AA]
3. DKIAALKAENAALEAEIAALKAEIAALKG [4H2698-AA]
4. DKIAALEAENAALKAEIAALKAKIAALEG [4H2253-AA]

RESULT:
1: -0.415; 2: 2.13; 3: 2.02; 4: 0.841
